# credit: the supplement of paper PMC10567573

Answer each item with its documented protein stability index.
B1: TIA1 (parent)
chain: TYECRCIGEEKEMWNFGEKYARF

variants of: B1; assay: protein stability index of a GFP-peptide fusion (GPS, HEK-293T) (PSI 1-6); higher = more stable; details: c terminus: native;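 note: lentivirally expressed fusions sorted by FACS into six bins by GFP to DsRed ratio, PSI derived from sequencing read proportions per bin multiplied by bin number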
Numbers only.

Requested field: protein stability index. Item: TYECRCIGEEKEMQNFGEKYARF
2.24

Check TYECRCQGEEKEMWNFGEKYARF too.
3.02

Check TYECRCIGEEKEMWNFGEKYARS too.
2.2

Check TYENRCIGEEKEMWNFGEKYARF too.
2.31

Check TYECRCIGEEKEMWNFGEKAARF too.
2.58

Please supply protein stability index for each of the following items, keeping them in order.
1. TYECRCIGEEKEMWNFGEKYDRF
2. TYECRCGGEEKEMWNFGEKYARF
3. TYECRCIGFEKEMWNFGEKYARF
4. TYECRCIGEDKEMWNFGEKYARF
5. TYECRCIGEEKEMWNFGWKYARF

3.1
3
1.81
1.99
3.12

Please supply protein stability index for each of the following items, keeping them in order.
1. TYECRCIGEEKEMWNFGEFYARF
2. TYECRCIGEEKEMWVFGEKYARF
3. TYELRCIGEEKEMWNFGEKYARF
4. TYECRCIGEEKEMWNFGEKYPRF

[2.16, 2.3, 2.85, 3.79]

Requested field: protein stability index. Item: TYECRCIGEEKEMWNFGEKYAVF
2.84
